Cited source: ChEMBL document CHEMBL5303300

Each entry below carries its reported Population Hoechst High Intensity Objects (%).
Test system: Fibroblast
Test: Multiplex assay against human fibroblast
Type: toxicity, cell-based
Details: 48 h, 10 µM, compound concentration 10 uM, number of replicates 2
recorded.metric: Population Hoechst High Intensity Objects (%)

* O=C1NC(=NCc2cccs2)SC1=Cc1ccc2ncccc2c1 | 0
* O=C(Nc1ccnc(NC(=O)C2CC2)c1)c1c(Cl)cccc1Cl | 0
* COc1ccccc1-c1cc(Nc2cccc(CS(N)(=O)=O)c2)ncn1 | 0
* CN1CCc2cc(Nc3ncc(C(F)(F)F)c(NCc4cc[nH]n4)n3)ccc2C1 | 0
* COC(=O)Nc1nc2c(s1)-c1c(c(-c3cccnc3)nn1-c1ccc(C3(N(C)C)CC3)cc1)CC2.Cl.Cl | 0
* O=C1NC(=O)C(c2ccccc2[N+](=O)[O-])=C1Nc1ccc(O)c(Cl)c1 | 0
* Cn1cc(-c2ccc(-c3cncc(Cl)c3N3CCC4(CCNC4=O)CC3)cc2)cn1 | 0
* Cl.Clc1ccc2nsnc2c1NC1=NCCN1 [TIZANIDINE HYDROCHLORIDE] | 0
* CCN(CC)C/C=C/C(=O)Nc1cc2c(Nc3ccc(F)c(Cl)c3)ncnc2cc1OCC1CC1 | 0
* CS(=O)(=O)c1ccc(C(=O)Nc2cc(F)c(F)c(COc3cc(F)c(Br)cc3CN3CC[C@H](O)C3)c2)c(Cl)c1.O=CO | 0

---

Tested on: Fibroblast
Experiment: Multiplex assay against human fibroblast
Type: toxicity, cell-based
Conditions: 24 h, 1 µM, compound concentration 1 uM, number of replicates 2
recorded.metric: Population Pyknosed Nuclei (%)

* CC(C)S(=O)(=O)c1ccccc1Nc1nc(N[C@@H]2CCCN(CCCCCCCNC(=O)COc3cccc4c3C(=O)N(C3CCC(=O)NC3=O)C4=O)C2)ncc1Cl (stereo not given in full) | 37
* CC(C)NC(=O)[C@H]1CCC[C@H]1Nc1nc(Nc2ccc(C(=O)N(C)C3CCN(C)CC3)cc2)ncc1Cl | 30
* CC(C)c1c(NC(=O)Nc2ccc(Cl)cc2)c(=O)n(-c2ccccc2)n1C | 13
* CS(=O)(=O)c1ccc(C(=O)Nc2cc(F)cc(COc3cc(F)c(Br)cc3CN3CC[C@H](O)C3)c2)c(Cl)c1.O=CO | 19
* CC(C)(C)c1cnc(CSc2cnc(NC(=O)C3CCNCC3)s2)o1 | 26

---

Test system: Fibroblast
Assay: Multiplex assay against human fibroblast
Assay type: toxicity, cell-based
Settings: 24 h, 1 µM, compound concentration 1 uM, number of replicates 2
*1 amine or outer side, *2 acyl side, *3 side chain or, on linkers, in order; H or OH if unused. Where a SMILES comes first, the peptide text is derived from it. Bridges are numbered along the chain shown (N, C = ends). Roman numbers before positions name the chains, in order. [ ]: non-standard residue; d: D form. Hexamethylenediamine = C(CCCN[*:2])CCN[*:1]; Dip = N[C@H](C(=O)O)C(c1ccccc1)c1ccccc1; Chg = N[C@H](C(=O)O)C1CCCCC1; NMeA = CN[C@@H](C)C(=O)O
Each entry below carries its reported Population Hoechst High Intensity Objects (%).
recorded.metric: Population Hoechst High Intensity Objects (%)

* CNS(=O)(=O)c1ccc(N(C)C)c(Nc2ncnc3cc(OC)c(OC)cc23)c1 | 0
* CN[C@@H](C)C(=O)N[C@H](C(=O)N1CCC[C@H]1C(=O)N[C@H](C(=O)NCCCCCCNC(=O)[C@@H](NC(=O)[C@@H]1CCCN1C(=O)[C@@H](NC(=O)[C@H](C)NC)C1CCCCC1)C(c1ccccc1)c1ccccc1)C(c1ccccc1)c1ccccc1)C1CCCCC1 (I: H-[NMeA][Chg]P[Dip] / II: H-[NMeA][Chg]P[Dip]; linker I:C-II:C via Hexamethylenediamine) | 0
